- TARGET_OR_TEST_SYSTEM: hCA IX (Homo sapiens, UniProt Q16790)
- Construct: made in house
- ASSAY_INFO: stopped-flow CO2 hydrase assay, hCA IX
- Format: biochemical
- CONDITION: ratio of KI for hCA I and II relative to hCA IX
- Description: The newly synthesised MPCs (3 and 5a–o) were assessed for their CA inhibition activity employing the stopped-flow CO2 hydrase assay[29] for constitutional hCA (I/II) isoforms and cancer-linked hCA (IX/XII) isoforms. The CA inhibition activity for the herein reported MPC derivatives was evaluated against the hCA isoforms I, II, IX, and XII using stopped-flow CO2 hydrase test[7]^,[33–36] (see the Supplementary Material). Carbonic anhydrase inhibition assay […]
READOUT_LABEL: Selectivity index (SI) (KI off-target CA/KI target CA) Towards hCA IX

Reference set (10 entries):
> print(dat)
                                    compound  measured.value
 1  COc1cc(/C=C/C(=O)c2ccc(-c3cc4ccccc4oc3=O)nc2C)cc(OC)c1OC [Compound 5i]           >3.65
 2  Cc1nc(-c2cc3ccccc3oc2=O)ccc1C(=O)/C=C/c1ccc([N+](=O)[O-])cc1 [Compound 5e]           >6.10
 3  Cc1nc(-c2cc3ccccc3oc2=O)ccc1C(=O)/C=C/c1ccc(N2CCOCC2)cc1 [Compound 5g]           >8.33
 4  Cc1nc(-c2cc3ccccc3oc2=O)ccc1C(=O)/C=C/c1ccc(F)cc1 [Compound 5b]          >29.41
 5  CC(=O)c1ccc(-c2cc3ccccc3oc2=O)nc1C [Compound 3]         >105.26
 6  Cc1nc(-c2cc3ccccc3oc2=O)ccc1C(=O)/C=C/c1ccccc1 [Compound 5a]          >66.67
 7  Cc1nc(-c2cc3ccccc3oc2=O)ccc1C(=O)/C=C/c1ccc(Cl)cc1 [Compound 5c]          >17.24
 8  COc1ccc(/C=C/C(=O)c2ccc(-c3cc4ccccc4oc3=O)nc2C)cc1 [Compound 5h]           >9.34
 9  Cc1ccc(/C=C/C(=O)c2ccc(-c3cc4ccccc4oc3=O)nc2C)cc1 [Compound 5d]          >23.25
10  Cc1nc(-c2cc3ccccc3oc2=O)ccc1C(=O)/C=C/c1ccc2c(c1)OCO2 [Compound 5j]          >18.87

Write down the reported Selectivity index (SI) (KI off-target CA/KI target CA) Towards hCA IX of Cc1nn(-c2ccccc2)cc1/C=C/C(=O)c1ccc(-c2cc3ccccc3oc2=O)nc1C [Compound 5o] , test system: hCA IX (Homo sapiens, UniProt Q16790).
>5.15

Record: Cc1nc(-c2cc3ccccc3oc2=O)ccc1C(=O)/C=C/c1ccc(N(C)C)cc1 [Compound 5f]
>11.76

Same read-out for Cc1nc(-c2cc3ccccc3oc2=O)ccc1C(=O)/C=C/c1ccccn1 [Compound 5l] ?
>26.32

Same read-out for Cc1nc(-c2cc3ccccc3oc2=O)ccc1C(=O)/C=C/c1cccc2ccccc12 [Compound 5k] ?
>2.71

How about Cc1ccc(/C=C/C(=O)c2ccc(-c3cc4ccccc4oc3=O)nc2C)o1 [Compound 5n] ?
>66.67

Source listed as paper PMC9037210.
